From: patent US9669035B2

- Test system: Apomorphine-induced agitation in rats
- procedure_details: Inhibition of apomorphine-induced agitation in rats (APO)
- test_settings: SC
Structures can show the parent of a compound that is named as a salt.
The following compounds are shown together with reported Dose at max effect values.
observation_type: Dose at max effect

                                   compound  number
0  CCCOc1ccc(Cl)c(-c2nnc3c(C)nc4ccc(CN5CCOCC5)cc4n23)c1 [Compound B-8]      10
1  COc1cncc(-c2nnc3c(C)nc4ccc(CN5CCOCC5)cc4n23)c1 [Compound B-12]      10
2  CCOc1ccc(Cl)c(-c2nnc3c(C)nc4ccc(CN5CCOCC5)cc4n23)c1 [Compound B-7]      10
3  Cc1nc2ccc(CN3CCOCC3)cc2n2c(-c3c(F)cccc3Cl)nnc12 [Compound B-5]      40
4  CCOc1ccc(Cl)c(-c2nnc3c(C)nc4ccc(CN(C)C)cc4n23)c1 [Compound B-18]      10
5  CCNCc1ccc2nc(C)c3nnc(-c4ccccc4Cl)n3c2c1 [Compound B-4]      10
6  Cc1nc2ccc(CN3CCOCC3)cc2n2c(-c3ccccc3Cl)nnc12 [Compound B-3]       5
7  Cc1nc2ccc(CN(C)C)cc2n2c(-c3ccccc3Cl)nnc12 [Compound B-13]      10
8  CCCCOc1cncc(-c2nnc3c(C)nc4ccc(CN5CCOCC5)cc4n23)c1 [Compound B-1a, hydrochloride]      40
9  Cc1nc2ccc(CN3CCOCC3)cc2n2c(-c3cc(F)ccc3Cl)nnc12 [Compound B-9]      10

---

Some compounds, each annotated with its measured Max effect (lowest median cumulative agitation score).
- System: Apomorphine-induced agitation in rats
- procedure_details: Inhibition of apomorphine-induced agitation in rats (APO)
- test_settings: SC; at the dose at max effect
Where a name gives a salt, the structure may show the parent alone.
observation_type: Max effect (lowest median cumulative agitation score)

>>> print(df.to_string())
                                   compound  number
0  CCOc1ccc(Cl)c(-c2nnc3c(C)nc4ccc(CN5CCOCC5)cc4n23)c1      24
1  Cc1nc2ccc(CN(C)C)cc2n2c(-c3ccccc3Cl)nnc12    20.5
2  Cc1nc2ccc(CN3CCOCC3)cc2n2c(-c3ccccc3Cl)nnc12      14
3  COc1cncc(-c2nnc3c(C)nc4ccc(CN5CCOCC5)cc4n23)c1      21
4  CCCCOc1cncc(-c2nnc3c(C)nc4ccc(CN5CCOCC5)cc4n23)c1 [Compound B-1a, hydrochloride]      23
5  CCCOc1ccc(Cl)c(-c2nnc3c(C)nc4ccc(CN5CCOCC5)cc4n23)c1      23
6   CCNCc1ccc2nc(C)c3nnc(-c4ccccc4Cl)n3c2c1      21
7  Cc1nc2ccc(CN3CCOCC3)cc2n2c(-c3cc(F)ccc3Cl)nnc12       9
8  CCOc1ccc(Cl)c(-c2nnc3c(C)nc4ccc(CN(C)C)cc4n23)c1      22
9  Cc1nc2ccc(CN3CCOCC3)cc2n2c(-c3c(F)cccc3Cl)nnc12       1

---

- measurement_target: Rat recombinant PDE10A (rPDE10A2) (Rattus norvegicus (Rat))
- Sequence (Q9QYJ6 whole entry): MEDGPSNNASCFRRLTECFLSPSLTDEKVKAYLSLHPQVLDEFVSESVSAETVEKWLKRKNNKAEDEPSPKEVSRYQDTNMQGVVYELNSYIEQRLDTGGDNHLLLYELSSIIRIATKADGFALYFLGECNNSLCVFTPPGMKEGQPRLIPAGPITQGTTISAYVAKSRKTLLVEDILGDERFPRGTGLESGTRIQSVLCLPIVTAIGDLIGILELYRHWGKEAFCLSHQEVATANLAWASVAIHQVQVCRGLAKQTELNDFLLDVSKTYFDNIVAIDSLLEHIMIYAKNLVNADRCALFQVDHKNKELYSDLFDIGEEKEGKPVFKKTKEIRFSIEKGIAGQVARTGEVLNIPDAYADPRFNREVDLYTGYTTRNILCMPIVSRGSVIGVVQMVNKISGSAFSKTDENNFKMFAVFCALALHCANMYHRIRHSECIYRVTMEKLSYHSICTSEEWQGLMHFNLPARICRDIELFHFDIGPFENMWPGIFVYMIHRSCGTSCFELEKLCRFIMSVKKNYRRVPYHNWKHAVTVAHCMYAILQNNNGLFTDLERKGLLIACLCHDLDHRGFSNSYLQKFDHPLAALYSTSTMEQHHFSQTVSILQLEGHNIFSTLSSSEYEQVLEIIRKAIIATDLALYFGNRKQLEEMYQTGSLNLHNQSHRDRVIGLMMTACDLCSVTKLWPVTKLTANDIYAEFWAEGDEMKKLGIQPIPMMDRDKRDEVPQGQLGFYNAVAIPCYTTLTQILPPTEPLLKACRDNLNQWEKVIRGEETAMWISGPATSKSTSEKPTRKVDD
- procedure_details: In vitro assay PDE10A (SPA, 3H-cAMP)
- Assay type: biochemical
observation_type: PIC50 PDE10

In [3]: df
Out[3]:
                                    compound  observation_type  qualifying_sign  number
 0  CCCCOc1ccc(Cl)c(-c2nnc3c(C)nc4ccc(CN(C)C)cc4n23)c1       PIC50 PDE10                =    5.67
 1  CCCCOc1cncc(-c2nnc3c(C)nc4ccc(CNC(C)C)cc4n23)c1       PIC50 PDE10                <       5
 2  CCOc1ccc(Cl)c(-c2nnc3c(C)nc4ccc(CN(C)C)cc4n23)c1       PIC50 PDE10                =     6.5
 3  CCCCOc1cncc(-c2nnc3c(C)nc4ccc(CN(C)C)cc4n23)c1       PIC50 PDE10                =    5.03
 4  CCNCc1ccc2nc(C)c3nnc(-c4cc(OC(C)C)ccc4Cl)n3c2c1       PIC50 PDE10                =    5.07
 5  CCCOc1cncc(-c2nnc3c(C)nc4ccc(CNCC)cc4n23)c1       PIC50 PDE10                <       5
 6  CCCCOc1cncc(-c2nnc3c(C)nc4ccc(CNC)cc4n23)c1       PIC50 PDE10                <       5
 7  CCCCOc1cncc(-c2nnc3c(C)nc4ccc(CNCC)cc4n23)c1       PIC50 PDE10                <       5
 8  CCNCc1ccc2nc(C)c3nnc(-c4cc(OCC)ccc4Cl)n3c2c1 [Compound B-22a]       PIC50 PDE10                =    6.04
 9  CCCCOc1ccc(Cl)c(-c2nnc3c(C)nc4ccc(CNC)cc4n23)c1       PIC50 PDE10                =    5.04
10  Cc1nc2ccc(CNC(C)C)cc2n2c(-c3cncc(OCC4CC4)c3)nnc12       PIC50 PDE10                =    5.84
11  Cc1nc2ccc(CN(C)C)cc2n2c(-c3cc(OC(C)C)ccc3Cl)nnc12       PIC50 PDE10                =     5.8
12  CCNCc1ccc2nc(C)c3nnc(-c4cncc(OCC5CC5)c4)n3c2c1       PIC50 PDE10                <       5
13  Cc1nc2ccc(CN(C)C)cc2n2c(-c3cncc(OCC4CC4)c3)nnc12       PIC50 PDE10                <       5
14  CCCCOc1ccc(Cl)c(-c2nnc3c(C)nc4ccc(CNC(C)C)cc4n23)c1       PIC50 PDE10                =    5.38
15  CCCOc1ccc(Cl)c(-c2nnc3c(C)nc4ccc(CNCC)cc4n23)c1       PIC50 PDE10                =    5.75
16  CCCOc1ccc(Cl)c(-c2nnc3c(C)nc4ccc(CN(C)C)cc4n23)c1       PIC50 PDE10                =    5.83
